B1: Nuclear receptor subfamily 4 group A member 2, residues 260 to 336; numbered along this chain, P43354 (parent)
chain: EGLCAVCGDNAACQHYGVRTCEGCKGFFKRTVQKNAKYVCLANKNCPVDKRRRNRCQYCRFQKCLAVGMVKEVVRTD

- Variants of: B1
- test.summary: abundance fitness (aPCA) (normalised: wild type 0, dead -1); higher = more abundant; growth selection in yeast, the domain comes from the species named
- test.settings: Homo sapiens
Measured abundance fitness values are reported for all entries that follow.
Reply briefly: the number, and no unit.

seq: EGLCAVCGDNAACQHYGVRTCEGCKGFFKRTVQKNAKYVCLANKNAPVDKRRRNRCQYCRFQKCLAVGMVKEVVRTD
abundance fitness: -1.16

seq: EGLCAVCGDNAACQHYGVRTCEGCKGFFKRTVQKNAKYVCLANKNCPVDKRRRNRCQYCRFQKCLAVGMAKEVVRTD
abundance fitness: 0.06

Entry `EGLCAVCGDNAACMHYGVRTCEGCKGFFKRTVQKNAKYVCLANKNCPVDKRRRNRCQYCRFQKCLAVGMVKEVVRTD` ; abundance fitness = 0.199

Entry `EGLCAVCGDNAACQHYGVRTCDGCKGFFKRTVQKNAKYVCLANKNCPVDKRRRNRCQYCRFQKCLAVGMVKEVVRTD` ; abundance fitness = 0.049

Entry `EGLCAVCGDNAACQHYGVRTCEGCKGFFKRTVQKNAKYVCLANKNCMVDKRRRNRCQYCRFQKCLAVGMVKEVVRTD` ; abundance fitness = -0.239

Entry `EGLCAVCGDNAACQHYGVRTCEGCKGFFKRTVQKNAKYVCLANKNCPVDKRRANRCQYCRFQKCLAVGMVKEVVRTD` ; abundance fitness = 0.078

Entry `EGLCAVCGDNAACQHYGVRTCEGCKVFFKRTVQKNAKYVCLANKNCPVDKRRRNRCQYCRFQKCLAVGMVKEVVRTD` ; abundance fitness = -0.191

Entry `EGLCAVCGDNAACQHYGVRTCEGCKGFFGRTVQKNAKYVCLANKNCPVDKRRRNRCQYCRFQKCLAVGMVKEVVRTD` ; abundance fitness = -0.178
